- ASSAYED SYSTEM: UniProt P51532
- TEST PROTOCOL: HiBiT assay for protein degradation, Hela SMARCA4-HiBiT cells (A series)
- Assay type: cell-based
- Design: fuse HiBiT to the carboxy terminus of SMARCA2 (Promega CS302365) or SMARCA4 (Promega CS3023225); host or cells: HeLa (CRISPR/Cas9 HiBiT knock-in)
- CONDITION LABEL: Hela SMARCA4-HiBiT cells, 24 hours treatment; read-out: SMARC A4 Hela HiBit Dmax
Here the recorded Dmax is given for each entry.
MEASURED METRIC: Dmax

{"COMPOUND": "Cc1ncsc1-c1ccc([C@H](CC(=O)N2CCC(N3CCC(c4ccc5c(c4)-n4c(nc(=O)c6c(Cl)cccc64)C54CCCCC4)CC3)CC2)NC(=O)[C@@H]2C[C@@H](O)CN2C(=O)[C@@H](n2cc(C3CC3)nn2)C(C)(C)C)cc1 [Compound A143]", "ASSAYED SYSTEM": "UniProt P51532", "ENDPOINT RESULT": "50 to 69%"}
{"COMPOUND": "Cc1ncsc1-c1ccc([C@H](Cn2cc(CN3CCC(c4ccc5c(c4)C4(CCCCC4)c4nc(=O)c6c(Br)cccc6n4-5)CC3)nn2)NC(=O)[C@@H]2C[C@@H](O)CN2C(=O)[C@@H](n2cc(C3CC3)nn2)C(C)(C)C)cc1 [Compound A115]", "ASSAYED SYSTEM": "UniProt P51532", "ENDPOINT RESULT": "> 90%"}
{"COMPOUND": "Cc1ncsc1-c1ccc([C@H](COCC(=O)O)NC(=O)[C@@H]2C[C@@H](O)CN2C(=O)[C@@H](n2cc([C@H]3CC[C@H](CN4CCC(c5ccc6c(c5)-n5c(nc(=O)c7c(Cl)cccc75)C65CCCCC5)CC4)CC3)nn2)C(C)(C)C)cc1 [Compound A155]", "ASSAYED SYSTEM": "UniProt P51532", "ENDPOINT RESULT": "< 50%"}
{"COMPOUND": "CC(C)(C)[C@@H](C(=O)N1C[C@H](O)C[C@H]1C(=O)N[C@@H](CN1CCOCC1)c1ccc(-c2ccccn2)cc1)n1cc([C@H]2CC[C@H](CN3CCC(c4ccc5c(c4)-n4c(nc(=O)c6c(Cl)cccc64)C54CCCCC4)CC3)CC2)nn1 [Compound A173]", "ASSAYED SYSTEM": "UniProt P51532", "ENDPOINT RESULT": "< 50%"}

====

- ASSAYED SYSTEM: SMARCA4 (Homo sapiens, UniProt P51532)
- Sequence (P51532 whole entry): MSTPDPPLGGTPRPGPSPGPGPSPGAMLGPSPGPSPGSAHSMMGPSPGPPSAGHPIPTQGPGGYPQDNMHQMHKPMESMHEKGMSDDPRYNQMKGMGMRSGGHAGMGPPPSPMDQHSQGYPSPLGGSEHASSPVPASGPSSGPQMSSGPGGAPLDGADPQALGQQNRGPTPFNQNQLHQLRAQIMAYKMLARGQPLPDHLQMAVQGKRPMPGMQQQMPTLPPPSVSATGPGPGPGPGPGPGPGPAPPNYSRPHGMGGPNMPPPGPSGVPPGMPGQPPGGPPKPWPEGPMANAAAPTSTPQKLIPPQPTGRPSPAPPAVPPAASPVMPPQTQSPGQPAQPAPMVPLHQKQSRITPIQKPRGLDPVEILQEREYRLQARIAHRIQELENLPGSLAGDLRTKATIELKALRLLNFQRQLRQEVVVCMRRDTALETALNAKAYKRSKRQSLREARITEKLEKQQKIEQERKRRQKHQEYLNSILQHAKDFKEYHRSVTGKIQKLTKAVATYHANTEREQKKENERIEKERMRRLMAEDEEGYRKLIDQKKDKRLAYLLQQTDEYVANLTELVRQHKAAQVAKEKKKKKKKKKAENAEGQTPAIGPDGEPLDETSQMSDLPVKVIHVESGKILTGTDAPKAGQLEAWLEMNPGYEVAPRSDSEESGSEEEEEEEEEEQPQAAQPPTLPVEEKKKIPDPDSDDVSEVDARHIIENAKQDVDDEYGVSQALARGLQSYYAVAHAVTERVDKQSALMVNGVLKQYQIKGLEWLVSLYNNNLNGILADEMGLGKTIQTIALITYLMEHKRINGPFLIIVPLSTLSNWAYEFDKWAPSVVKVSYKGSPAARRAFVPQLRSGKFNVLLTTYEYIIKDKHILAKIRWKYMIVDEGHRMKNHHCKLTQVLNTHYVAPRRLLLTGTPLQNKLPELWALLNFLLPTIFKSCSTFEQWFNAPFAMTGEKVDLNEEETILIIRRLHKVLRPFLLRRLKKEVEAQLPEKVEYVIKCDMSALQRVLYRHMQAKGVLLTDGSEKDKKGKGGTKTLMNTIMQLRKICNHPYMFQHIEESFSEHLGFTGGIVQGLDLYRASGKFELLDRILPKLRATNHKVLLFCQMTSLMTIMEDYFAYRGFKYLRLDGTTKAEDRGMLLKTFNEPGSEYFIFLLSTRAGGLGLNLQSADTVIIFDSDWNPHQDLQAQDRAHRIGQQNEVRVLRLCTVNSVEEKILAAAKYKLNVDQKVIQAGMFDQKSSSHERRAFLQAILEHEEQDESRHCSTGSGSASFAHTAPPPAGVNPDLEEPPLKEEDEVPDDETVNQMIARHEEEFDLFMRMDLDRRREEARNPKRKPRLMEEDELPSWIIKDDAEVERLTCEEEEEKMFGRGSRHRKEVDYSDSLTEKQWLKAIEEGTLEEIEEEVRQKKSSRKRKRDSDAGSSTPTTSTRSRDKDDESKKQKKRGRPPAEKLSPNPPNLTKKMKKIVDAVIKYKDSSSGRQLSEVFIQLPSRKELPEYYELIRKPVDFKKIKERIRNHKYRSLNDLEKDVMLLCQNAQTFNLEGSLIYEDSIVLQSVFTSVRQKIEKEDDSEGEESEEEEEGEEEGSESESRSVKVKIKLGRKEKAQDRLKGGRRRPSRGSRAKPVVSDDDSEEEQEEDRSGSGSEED
- TEST PROTOCOL: HiBit assay in engineered HT1080 CRISPR knock-in cell, 6 hrs (B series), SMARCA4
- Assay type: cell-based
- CONDITION LABEL: HT-1080, HT1080 CRISPR knock-in cells, 6 hrs incubation; read-out: SMARC A4 HT1080 HiBit Dmax(%)

{"COMPOUND": "Cc1ncsc1-c1ccc([C@H](C)NC(=O)[C@@H]2C[C@@H](O)CN2C(=O)[C@@H](c2cc(N3CCC(C(=O)N4CCC(c5ccc6c(c5)C(C)(C)c5nc(=O)c7c(Cl)cccc7n5-6)CC4)CC3)no2)C(C)C)cc1 [Compound B90]", "Dmax": "> 90%"}
{"COMPOUND": "C[C@H](NC(=O)[C@@H]1C[C@@H](O)CN1C(=O)[C@@H](NC(=O)[C@H]1CC[C@H](C(=O)N2CCC(c3ccc4c(c3)-n3c(nc(=O)c5c(Cl)cccc53)C4(C)C)CC2)CC1)C(C)(C)C)c1ccc(-c2ncnn2C)cc1 [Compound B65]", "Dmax": "< 50%"}
{"COMPOUND": "Cc1ncsc1-c1ccc([C@H](C)NC(=O)[C@@H]2C[C@@H](O)CN2C(=O)[C@@H](NC(=O)CCN2CCC(c3ccc4c(c3)-n3c(nc(=O)c5c(Cl)cccc53)C4(C)C)CC2)C(C)(C)C)cc1 [Compound B43]", "Dmax": "< 50%"}
{"COMPOUND": "Cc1ncsc1-c1ccc([C@H](C)NC(=O)[C@@H]2C[C@@H](O)CN2C(=O)[C@@H](c2cc(OCCCN3CCC(c4ccc5c(c4)C(C)(C)c4nc(=O)c6c(Cl)cccc6n4-5)CC3)no2)C(C)C)cc1 [Compound B11]", "Dmax": "> 90%"}
